All figures here come from patent US20130266517A1.

# pKd per entry
- experimentalTarget: alpha-synuclein (natural human wildtype alpha-synuclein) (human, UniProt P37840 1-140)
- procedureSummary: BLI, ForteBio Octet QK; apparent KD
Note on pKd: it is the negative log10 of concentration, concentration in mol/L.

Record excerpt, results attached:
query: Please look up its pKd: Humanized 1H7 H5L2 (Hu1H7VHv5-Hu1H7VLv2) (antibody, V domains shown) VH: QVQLVQSGAEVKKPGASVKVSCKASGYTFTSYYIHWVRQAPGQGLEWMGWIYPGSGNTKYSEKFKGRATMTADTSTSTAYMELRSLRSDDTAVYYCARDGSYGFAYWGQGTLVTVSS VL: DIQLTQSPSSLSASVGDRVTITCKASQSVDYDGDSYMNWYQQKPGKAPKFLIYAASNLESGVPSRFSGSGSGTDFTLTISSLQPEDAATYYCQQSNEDPFTFGQGTKLEIK
result: 8.40

query: Next up: Humanized 1H7 H5L4 (Hu1H7VHv5-Hu1H7VLv4) (antibody, V domains shown) VH: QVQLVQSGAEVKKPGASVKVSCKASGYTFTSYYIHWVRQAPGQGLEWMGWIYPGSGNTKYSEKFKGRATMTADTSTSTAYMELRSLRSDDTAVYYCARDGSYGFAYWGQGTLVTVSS VL: DIQLTQSPSSLSASVGDRVTITCKASQSVDYDGDSYMNWYQQKPGKAPKFLIYAASNLESGVPSRFSGSGSGTDFTLTISSLQPEDFATYYCQQSNEDPFTFGQGTKLEIK
result: 8.92

For the next question, use this binder.
query: Report pKd for Humanized 1H7 H1L1 (Hu1H7VHv1-Hu1H7VLv1) (antibody, V domains shown) VH: QVQLVQSGAELKKPGASVKVSCKASGYSFTSYYIHWVKQAPGQGLEWIGWIYPGSGNTKYSEKFKGRATLTADTSTSTAYMELRSLRSDDTAVYFCARDGCYGFAYWGQGTLVTVSS VL: DIQLTQSPSSLSASVGDRVTITCKASQSVDYDGDSYMNWYQQKPGKAPKFLICAASNLESGVPSRFSGSGSGTDFTLTISSLQPEDAATYYCQQSNEDPFTFGQGTKLEIK please.
result: 8.32
